# maps each entry to its pKd
Molecular target: T1, human IL-1α (human, UniProt P01583 113-271)
T1 construct: also called hIL-1α; rhIL-1 alpha
T1 sequence (looked up): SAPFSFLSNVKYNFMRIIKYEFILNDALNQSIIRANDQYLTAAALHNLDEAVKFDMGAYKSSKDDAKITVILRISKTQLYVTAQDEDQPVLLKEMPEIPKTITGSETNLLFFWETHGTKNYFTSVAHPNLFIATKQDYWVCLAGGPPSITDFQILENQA
Test: BIAcore, IL-1α coated chip, dAb flowed over
pKd: −log10 of the molar value.

Previously resolved entries follow.
binder="ABT1-95-2 (other, dAb, Vκ, to IL-1α) VL: DIQMTQSPSSLSASVGDRVTITCRASQPIHGNLRWYQQKPGKAPKLLIYSSSYLQSGVPSRFSGSGSGTDFTLTISSLQPEDFATYYCQQGYRWPVTFGQGTKVEIK" result="7.38 to 7.49"
binder="ABT1-122 (other, dAb, Vκ, to IL-1α) VL: DIQMTQSPSSLSASVGDRVTITCRASQPIWTELNWYQQKPGKAPKLLIYGSSSLQSGVPSRFSGSGSGTDFTLTISSLQPEDFATYYCQQFAYFPATFGQGTKVEIKR" result="7.07 to 7.40"
binder="ABT1-95-1 (other) DIQMTQSPSSLSASVGDRVTITCRASQPIHGNLRWYQQKPGKAPKLLIYNISNLQSGVPSRFSGSGSGTDFTLTISSLQPEDFATYHCQQGYRWPVTFGQGTKVEIKR" result="7.38 to 7.70"

Inquiry: pKd for ABT1-95-3 (other, dAb, Vκ, to IL-1α) VL: DIQMTQSPSSLSASVGDRVTITCRASQPIHGNLRWYQQKPGKAPKLLIYSSSYLQSGVPSRFSGSGSGTDFTLTISSLQPEDFATYHCQQGYRWPVTFGQGTKVEIKR ?
Reply text: 7.92 to 8.15

Where these numbers come from: patent US20090291081A1
